Biological target: OAT2-tv1 (Homo sapiens)
Experiment: Inhibition of [3H]penciclovir uptake into CHO-OAT2-tv1 cells
Format: cell-based
Settings: inhibition of [3H]penciclovir uptake by CHO-OAT2-tv1 cells; 5 min, room temperature; read-out: IC50
Counter-ions that a name gives are not always drawn.
metric: IC50 (µM)
Reply numerically in µM, unit not repeated.

Worked set:
Report measured IC50 on OAT2-tv1 (Homo sapiens); entry: Nc1nc2c(ncn2CCC(CO)CO)c(=O)[nH]1
78.4

GET IC50 | system: OAT2-tv1 (Homo sapiens) | item: C[C@]12CC[C@@H]3c4ccc(OS(=O)(=O)O)cc4CC[C@H]3[C@@H]1CCC2=O [Estrone Sulfate]
36.1

Print OAT2-tv1 (Homo sapiens) IC50 for CCCc1nc2c(C)cc(-c3nc4ccccc4n3C)cc2n1Cc1ccc(-c2ccccc2C(=O)O)cc1 .
17.1

Under OAT2-tv1 (Homo sapiens), report IC50 for CCCCC(=O)N(Cc1ccc(-c2ccccc2-c2nnn[nH]2)cc1)[C@H](C(=O)O)C(C)C
127

State IC50 on OAT2-tv1 (Homo sapiens). Entry: CC[N+](CC)(CC)CC
54.3

In the following, a different compound is considered.
Under OAT2-tv1 (Homo sapiens), report IC50 for CCCCC[C@H](O)/C=C/[C@H]1[C@H](O)CC(=O)[C@@H]1C/C=C\CCCC(=O)O [Prostaglandin E2]
26.8

* * *

Molecular target: OAT2-tv1 (Homo sapiens, UniProt Q9Y694)
Sequence (Q9Y694 1-546 isoform Q9Y694-2): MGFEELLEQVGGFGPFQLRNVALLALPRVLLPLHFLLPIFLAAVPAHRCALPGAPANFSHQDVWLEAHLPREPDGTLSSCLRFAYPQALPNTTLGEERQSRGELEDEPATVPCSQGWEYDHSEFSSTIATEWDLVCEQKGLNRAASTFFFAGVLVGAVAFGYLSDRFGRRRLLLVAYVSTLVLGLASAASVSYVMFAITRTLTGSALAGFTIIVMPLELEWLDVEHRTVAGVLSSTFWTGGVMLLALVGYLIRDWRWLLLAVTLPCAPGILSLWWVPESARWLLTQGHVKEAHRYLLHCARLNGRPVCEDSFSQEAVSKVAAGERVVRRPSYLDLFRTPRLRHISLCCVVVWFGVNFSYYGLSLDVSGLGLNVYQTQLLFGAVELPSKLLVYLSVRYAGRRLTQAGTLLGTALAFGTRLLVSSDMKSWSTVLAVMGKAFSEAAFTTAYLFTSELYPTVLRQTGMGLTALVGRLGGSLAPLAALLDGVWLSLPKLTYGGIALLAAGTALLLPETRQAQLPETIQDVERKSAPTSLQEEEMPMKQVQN
Assay: Inhibition of [3H]penciclovir uptake into CHO-OAT2-tv1 cells
Type: cell-based
Settings: inhibition of [3H]penciclovir uptake by CHO-OAT2-tv1 cells at the maximum concentration of test compound (Table 2, c1); 5 min, room temperature
Protocol: All experiments examining cellular radiolabeled compound uptake were conducted using cells grown to confluence in 24-well flat bottom plates. The transport solution consisted of WB (room temperature) containing radiolabeled compound and the uptake period for all experiments was at an initial rate time point of 5 min. […] Cellular radioactivity content was determined with a Beckman LS6500 liquid scintillation counter. Protein content was determined using the bicinchoninic acid method. […]
Below, each of the compounds is paired with its reported % Inhibition value.
Give the value, in units of %, as a plain number.

# count of solved cases: 5
Consider the compound NS(=O)(=O)c1cc(C(=O)O)c(NCc2ccco2)cc1Cl [Furosemide] tested on OAT2-tv1 (Homo sapiens, UniProt Q9Y694); state its % Inhibition.
90

Look up OAT2-tv1 (Homo sapiens, UniProt Q9Y694) data: % Inhibition of CCCCC[N+](CCCCC)(CCCCC)CCCCC , then report it.
49

Give % Inhibition; test system OAT2-tv1 (Homo sapiens, UniProt Q9Y694); compound COc1ccc2c(c1)c(CC(=O)O)c(C)n2C(=O)c1ccc(Cl)cc1
99

Fill in % Inhibition for CCCCC[C@H](O)/C=C/[C@H]1[C@H](O)CC(=O)[C@@H]1C/C=C\CCCC(=O)O [Prostaglandin E2] tested with OAT2-tv1 (Homo sapiens, UniProt Q9Y694).
96

Fill in % Inhibition for CC[C@H]1OC(=O)[C@H](C)[C@@H](O[C@H]2C[C@@](C)(OC)[C@@H](O)[C@H](C)O2)[C@H](C)[C@@H](O[C@@H]2O[C@H](C)C[C@H](N(C)C)[C@H]2O)[C@](C)(O)C[C@@H](C)C(=O)[C@H](C)[C@@H](O)[C@]1(C)O tested with OAT2-tv1 (Homo sapiens, UniProt Q9Y694).
65

New cases:
Please respond with reported % Inhibition (system OAT2-tv1 (Homo sapiens, UniProt Q9Y694)) for CN/C(=N/CCSCc1nc[nH]c1C)NC#N .
95

Tell me % Inhibition of CCCCC(=O)N(Cc1ccc(-c2ccccc2-c2nnn[nH]2)cc1)[C@H](C(=O)O)C(C)C when tested on OAT2-tv1 (Homo sapiens, UniProt Q9Y694).
86

* * *

Target: OAT2-tv1 (Homo sapiens, UniProt Q9Y694)
Test: Inhibition of [3H]penciclovir uptake into CHO-OAT2-tv1 cells
Assay type: cell-based
Conditions: inhibition of [3H]penciclovir uptake by CHO-OAT2-tv1 cells; 5 min, room temperature; read-out: IC50
metric: IC50 (µM)
Field: numeric (µM). Do not append units.

Please look at this compound and report its IC50: CCOc1cc(CC(=O)N[C@@H](CC(C)C)c2ccccc2N2CCCCC2)ccc1C(=O)O [Repaglinide]
30

Name the recorded IC50 of the item CC[C@H]1OC(=O)[C@H](C)[C@@H](O[C@H]2C[C@@](C)(OC)[C@@H](O)[C@H](C)O2)[C@H](C)[C@@H](O[C@@H]2O[C@H](C)C[C@H](N(C)C)[C@H]2O)[C@](C)(O)C[C@@H](C)C(=O)[C@H](C)[C@@H](O)[C@]1(C)O in your answer.
12

Attention now shifts to the item below.
Give the reported value of IC50 for this record: Nc1ccc(C(=O)NCC(=O)O)cc1 [para-aminohippurate]
210

Where these numbers come from: paper PMC4594013
